# Lookup of reported log10 t1/2 keyed by entry
- Tested on: Liver
- ASSAY: Half life in mouse liver microsomes at 0.5 to 1 uM by LC-MS/MS analysis
- Type: ADME, Microsome
- CONDITION DESCRIPTION: microsomes, 1 µM
Give log10 of t1/2, with t1/2 taken in min.

Please review the following examples before continuing.
>>> measured_number("CCn1c(SCCOC)nc2c(c1=O)C(C)(C)Cc1ccccc1-2")
-0.10
>>> measured_number("C=CCn1c(SC)nc2c(c1=O)C1(CCCCC1)Cc1ccccc1-2")
1.13
>>> measured_number("C=CCn1c(SCCOC)nc2c(c1=O)C1(CCCCC1)Cc1ccccc1-2")
0.81
>>> measured_number("C=CCn1c(SCCOC)nc2c(c1=O)C(C)(C)Cc1ccccc1-2")
0.23
>>> measured_number("C=CCn1c(OCC)nc2c(c1=O)C(C)(C)Cc1ccccc1-2")
-0.05
>>> measured_number("C=CCn1c(SCc2ccccc2)nc2c(c1=O)C1(CCCCC1)Cc1ccccc1-2")
-0.22

Item under review: `C=CCn1c(SCCCC)nc2c(c1=O)C1(CCCCC1)Cc1ccccc1-2` . Reported log10 t1/2?
1.57

Item under review: `C=CCn1c(NCC)nc2c(c1=O)C(C)(C)Cc1ccccc1-2` . Reported log10 t1/2?
0.04

Item under review: `C=CCn1c(SCC#N)nc2c(c1=O)C(C)(C)Cc1ccccc1-2` . Reported log10 t1/2?
1.31

// provenance: ChEMBL document CHEMBL2346625
